target: FLAG-Ago1 (Drosophila melanogaster, UniProt A1Z9J5 1-950); assay: RBNS; miR-184 guide; RBNS: 20 mM HEPES-KOH pH 7.9, 100 mM KOAc, 3.5 mM Mg(OAc) (magnesium acetate), 0.05% CHAPS, 2 mM DTT, 8% glycerol, BSA, tRNA, 25 C 2 h; filter binding: 25 mM HEPES-KOH pH 7.9, 110 mM KOAc, 3.5 mM magnesium acetate, 2 mM DTT, BSA, tRNA, 8% glycerol, 25 C 2 h; competition: 18 mM HEPES-KOH pH 7.4, 100 mM KOAc, 3 mM magnesium acetate, 5 mM DTT, 0.01% IGEPAL, tRNA, 25 C 1 h; conditions: protein: recombinant; tags: FLAG; g2-g7 + t1A
Sequence (A1Z9J5 entry or part of it): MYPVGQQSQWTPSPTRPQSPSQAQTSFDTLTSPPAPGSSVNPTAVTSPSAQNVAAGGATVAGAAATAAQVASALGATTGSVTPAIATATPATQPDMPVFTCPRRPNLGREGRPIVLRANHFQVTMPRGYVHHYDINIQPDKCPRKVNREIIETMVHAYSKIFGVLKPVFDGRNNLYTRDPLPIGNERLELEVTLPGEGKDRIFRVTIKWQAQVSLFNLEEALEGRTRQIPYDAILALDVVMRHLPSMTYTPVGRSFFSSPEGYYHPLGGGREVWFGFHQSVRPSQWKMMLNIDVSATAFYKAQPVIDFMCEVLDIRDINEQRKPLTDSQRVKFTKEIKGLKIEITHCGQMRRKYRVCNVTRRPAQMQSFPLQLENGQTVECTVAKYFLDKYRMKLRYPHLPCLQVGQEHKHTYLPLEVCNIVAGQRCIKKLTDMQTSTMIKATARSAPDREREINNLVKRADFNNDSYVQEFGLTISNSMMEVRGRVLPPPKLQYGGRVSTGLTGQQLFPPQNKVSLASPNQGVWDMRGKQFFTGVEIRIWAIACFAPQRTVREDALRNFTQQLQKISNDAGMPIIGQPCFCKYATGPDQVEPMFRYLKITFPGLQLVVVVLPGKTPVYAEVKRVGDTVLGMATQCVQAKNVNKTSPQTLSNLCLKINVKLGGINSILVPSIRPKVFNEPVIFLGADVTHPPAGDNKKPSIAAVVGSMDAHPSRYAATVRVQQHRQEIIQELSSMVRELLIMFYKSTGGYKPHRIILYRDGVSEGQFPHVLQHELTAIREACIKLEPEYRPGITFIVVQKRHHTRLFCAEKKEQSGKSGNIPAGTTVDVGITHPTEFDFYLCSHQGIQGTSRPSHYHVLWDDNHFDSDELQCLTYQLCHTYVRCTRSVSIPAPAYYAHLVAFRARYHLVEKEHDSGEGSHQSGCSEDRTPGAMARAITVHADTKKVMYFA
READOUT LABEL: Kd (nM)

INSERT INTO results (binder, readout_label, measured_number) VALUES
  ('miR-184 / 7mer-A1 (dsRNA, guide 5'' phosphate) RNA 1: UGGACGGAGAACUGAUAAGGGC RNA 2: CCGUCCA', 'Kd', 0.037);

The reported measurements were obtained from paper doi:10.1101/2024.11.16.623948.
